# System: Zymoseptoria tritici
# assayName: Fungicidal activity: leaf blotch of wheat (SEPTTR), disease control on wheat seedlings
# Type: in vivo, Zymoseptoria tritici on wheat plants (variety Yuma)
# testSettings: 24 h, low volume application, 121.5 g/H, 1 day protectant, read-out: SEPTTR 1DP disease control, LV activity at 121.5 g/H
propertyMeasured: pest or weed control at 121.5 g/ha

structureNotation | result
COc1ccnc(C(=S)N[C@@H](C)C(=O)O[C@@H](C)[C@@H](c2ccccc2)c2ccc(F)cc2)c1OC(C)=O | > 80%
COc1ccnc(C(=S)N[C@H](C)C(=O)O[C@H](C)C(c2ccc(F)cc2)c2ccc(F)cc2)c1OC(C)=O | ≤ 80%

Record pest or weed control at 121.5 g/ha for all entries; do not skip any.
1. COc1ccnc(C(=S)N[C@@H](C)C(=O)O[C@@H](C)[C@H](Oc2ccc(Cl)cc2)C2CCCC2)c1OC(C)=O
2. COc1cc(F)ccc1[C@H](c1ccccc1)[C@H](C)OC(=O)[C@H](C)NC(=S)c1nccc(OC)c1OC(C)=O
3. CCCCC[C@H](OC(=O)[C@H](C)NC(=S)c1nccc(OC)c1OC(C)=O)[C@@H](C)Oc1ccccc1
4. COc1ccnc(C(=S)N[C@@H](C)C(=O)O[C@H](C(C)C)[C@H](C)Oc2ccc(C)cc2)c1OC(C)=O
5. COc1ccnc(C(=S)N[C@@H](C)C(=O)O[C@@H](C)C(c2ccc(F)cc2)c2ccc(F)cc2)c1OC(C)=O
6. COc1ccnc(C(=S)N[C@H](C)C(=O)O[C@@H](C)C(c2ccc(F)cc2)c2ccc(F)cc2)c1OC(C)=O
7. COc1ccccc1C(c1ccccc1OC)[C@H](C)OC(=O)[C@H](C)NC(=S)c1nccc(OC)c1OC(C)=O

Completion:
1: > 80%; 2: > 80%; 3: ≤ 80%; 4: ≤ 80%; 5: > 80%; 6: > 80%; 7: > 80%

Record pest or weed control at 121.5 g/ha for all entries; do not skip any.
1. COc1ccnc(C(=S)N[C@@H](C)C(=O)O[C@@H](C)[C@@H](c2ccccc2)c2ccc(F)cc2C)c1OC(C)=O
2. COc1ccnc(C(=S)N[C@@H](C)C(=O)O[C@@H](C)[C@H](Oc2ccc(Cl)cc2Cl)c2ccccc2)c1OC(C)=O
3. COc1cc(F)ccc1[C@@H](c1ccc(F)cc1)[C@H](C)OC(=O)[C@H](C)NC(=S)c1nccc(OC)c1OC(C)=O
4. COc1cc(F)ccc1[C@H](c1ccc(C)cc1)[C@H](C)OC(=O)[C@H](C)NC(=S)c1nccc(OC)c1OC(C)=O
5. COc1ccc(C(c2ccc(OC)cc2F)[C@H](C)OC(=O)[C@H](C)NC(=S)c2nccc(OC)c2OC(C)=O)c(F)c1
6. COc1ccnc(C(=S)N[C@@H](C)C(=O)O[C@@H](C)[C@H](Oc2ccccc2)c2ccc(F)cc2C)c1OC(C)=O
7. COc1ccnc(C(=S)N[C@@H](C)C(=O)O[C@@H](C)C(c2ccc(Cl)cc2)c2ccc(Cl)cc2)c1OC(C)=O
8. CCCCC[C@@H](OC(=O)[C@H](C)NC(=S)c1nccc(OC)c1CC(C)=O)[C@H](C)Oc1ccccc1

Completion:
1. > 80%
2. ≤ 80%
3. > 80%
4. > 80%
5. > 80%
6. > 80%
7. > 80%
8. > 80%

Record pest or weed control at 121.5 g/ha for all entries; do not skip any.
1. COc1ccc(O[C@@H](C)[C@H](OC(=O)[C@H](C)NC(=S)c2nccc(OC)c2OC(C)=O)C(C)C)cc1
2. COc1ccnc(C(=S)N[C@@H](C)C(=O)O[C@@H](C)C(c2ccc(C)cc2)c2ccc(C)cc2)c1OC(C)=O
3. COc1ccnc(C(=S)N[C@@H](C)C(=O)O[C@@H](C)[C@H](Oc2cccc(F)c2)C(C)C)c1OC(C)=O
4. COc1ccnc(C(=S)N[C@@H](C)C(=O)O[C@@H](C)[C@@H](c2ccc(C)cc2)c2ccc(F)cc2C)c1OC(C)=O
5. COc1cc(Cl)ccc1C(c1ccc(Cl)cc1OC)[C@H](C)OC(=O)[C@H](C)NC(=S)c1nccc(OC)c1OC(C)=O

Completion:
["> 80%", "> 80%", "≤ 80%", "> 80%", "> 80%"]

Record pest or weed control at 121.5 g/ha for all entries; do not skip any.
1. C=CC[C@@H](Oc1ccccc1)[C@H](C)OC(=O)[C@H](C)NC(=S)c1nccc(OC)c1OC(C)=O
2. COc1ccnc(C(=S)N[C@@H](C)C(=O)O[C@@H](C)[C@H](Oc2ccccc2)c2ccc(F)cc2Cl)c1OC(C)=O
3. CCC[C@@H](Oc1ccc(C)cc1)[C@H](C)OC(=O)[C@H](C)NC(=S)c1nccc(OC)c1OC(C)=O
4. COc1ccnc(C(=S)N[C@@H](C)C(=O)O[C@@H](C)[C@H](Oc2ccc(Cl)cc2)C(C)C)c1OC(C)=O
5. COc1cc(F)ccc1C(c1ccc(F)cc1OC)[C@H](C)OC(=O)[C@H](C)NC(=S)c1nccc(OC)c1OC(C)=O

Completion:
["≤ 80%", "> 80%", "≤ 80%", "> 80%", "> 80%"]

###

# Test system: Puccinia triticina
# assayName: Fungicidal activity: wheat brown rust (PUCCRT), disease control on wheat seedlings
# Type: in vivo, Puccinia triticina on wheat plants (variety Yuma)
# testSettings: 72 h, high volume application, 100 ppm, 3 day curative, read-out: PUCCRT 3DC disease control, HV activity at 100 ppm
propertyMeasured: pest or weed control at 100 ppm

structureNotation | pest or weed control at 100 ppm
COc1ccnc(C(=S)N[C@@H](C)C(=O)O[C@@H](C)[C@@H](c2ccc(C)cc2)c2ccc(F)cc2C)c1O | ≤ 80%

Record pest or weed control at 100 ppm for all entries; do not skip any.
1. CCC[C@@H](Oc1ccc(C)cc1)[C@H](C)OC(=O)[C@H](C)NC(=S)c1nccc(OC)c1O
2. COc1cc(C)ccc1C(c1ccc(C)cc1OC)[C@H](C)OC(=O)[C@H](C)NC(=S)c1nccc(OC)c1O
3. COc1ccnc(C(=S)N[C@@H](C)C(=O)O[C@H](C(C)C)[C@H](C)Oc2ccc(F)cc2)c1O

Completion:
1. > 80%
2. > 80%
3. > 80%

###

I'd appreciate it if you could supply melting point values for the items below.

Recorded melting point, per entry:
molecule | melting point
COc1cc(C)ccc1C(c1ccc(C)cc1OC)[C@H](C)OC(=O)[C@H](C)NC(=S)c1nccc(OC)c1O [Compound 29] | 60 to 72 °C
COc1ccnc(C(=S)N[C@@H](C)C(=O)O[C@@H](C)[C@H](Oc2ccc(Cl)cc2)C2CCCC2)c1O [Compound 38] | 49 to 57 °C
COc1ccnc(C(=S)N[C@@H](C)C(=O)O[C@@H](C)[C@H](Oc2ccccc2)c2ccc(F)cc2C)c1O [Compound 35] | 45 to 57 °C
CC[C@H](OC(=O)[C@H](C)NC(=S)c1nccc(OC)c1O)[C@@H](C)Oc1ccccc1 [Compound 25] | 80 to 86 °C
COc1ccnc(C(=S)N[C@@H](C)C(=O)O[C@@H](C)[C@H](Oc2ccccc2)c2ccc(F)cc2Cl)c1O [Compound 30] | 50 to 60 °C

Record melting point for all entries; do not skip any.
1. COc1ccnc(C(=S)N[C@@H](C)C(=O)O[C@@H](C(C)C)[C@@H](C)Oc2ccccc2)c1O [Compound 27]
2. CCC[C@@H](Oc1ccc(C)cc1)[C@H](C)OC(=O)[C@H](C)NC(=S)c1nccc(OC)c1O [Compound 37]

Completion:
["46 to 63 °C", "125 to 133 °C"]

Prompt: I would be grateful if you could share the reported melting point for COc1cc(F)ccc1C(c1ccc(F)cc1OC)[C@H](C)OC(=O)[C@H](C)NC(=S)c1nccc(OC)c1O [Compound 23] .
Completion: 59 to 75 °C

###

I'd appreciate it if you could supply pest or weed control at 100 ppm values for the items below.
# Test system: Puccinia triticina
# assayName: Fungicidal activity: wheat brown rust (PUCCRT), disease control on wheat seedlings
# Type: in vivo, Puccinia triticina on wheat plants (variety Yuma)
# testSettings: 72 h, high volume application, 100 ppm, 3 day curative, read-out: PUCCRT 3DC disease control, HV activity at 100 ppm

molecule | propertyMeasured | result
COc1ccnc(C(=S)N[C@@H](C)C(=O)O[C@@H](C)[C@H](Oc2ccc(Cl)cc2)C2CCCC2)c1O [Compound 38] | pest or weed control at 100 ppm | > 80%
COc1ccccc1C(c1ccccc1OC)[C@H](C)OC(=O)[C@H](C)NC(=S)c1nccc(OC)c1O [Compound 13] | pest or weed control at 100 ppm | ≤ 80%
COc1cc(F)ccc1C(c1ccc(F)cc1OC)[C@H](C)OC(=O)[C@H](C)NC(=S)c1nccc(OC)c1O [Compound 23] | pest or weed control at 100 ppm | ≤ 80%
COc1ccnc(C(=S)N[C@@H](C)C(=O)O[C@H](C(C)C)[C@H](C)Oc2ccc(C)cc2)c1O [Compound 1] | pest or weed control at 100 ppm | > 80%
COc1ccnc(C(=S)N[C@@H](C)C(=O)O[C@@H](C)[C@H](Oc2cccc(F)c2)C(C)C)c1O [Compound 33] | pest or weed control at 100 ppm | > 80%
COc1ccnc(C(=S)N[C@@H](C)C(=O)O[C@@H](C)[C@H](Oc2ccccc2)c2ccc(F)cc2C)c1O [Compound 35] | pest or weed control at 100 ppm | ≤ 80%

Record pest or weed control at 100 ppm for all entries; do not skip any.
1. COc1cc(F)ccc1[C@H](c1ccccc1)[C@H](C)OC(=O)[C@H](C)NC(=S)c1nccc(OC)c1O [Compound 12]
2. COc1ccnc(C(=S)N[C@@H](C)C(=O)O[C@@H](C)[C@H](Oc2ccccc2)c2ccc(F)cc2Cl)c1O [Compound 30]
3. COc1ccnc(C(=S)N[C@@H](C)C(=O)O[C@H](C(C)C)[C@H](C)Oc2ccccc2)c1O [Compound 19]

Completion:
["≤ 80%", "≤ 80%", "> 80%"]

Record pest or weed control at 100 ppm for all entries; do not skip any.
1. COc1ccnc(C(=S)N[C@@H](C)C(=O)O[C@@H](C)[C@@H](c2ccc(F)cc2)c2ccc(F)cc2C)c1O [Compound 31]
2. C=CC[C@@H](Oc1ccccc1)[C@H](C)OC(=O)[C@H](C)NC(=S)c1nccc(OC)c1O [Compound 16]
3. COc1ccnc(C(=S)N[C@@H](C)C(=O)O[C@@H](C)[C@@H](c2ccccc2)c2ccc(F)cc2C)c1O [Compound 26]
4. COc1cc(F)ccc1[C@@H](c1ccc(F)cc1)[C@H](C)OC(=O)[C@H](C)NC(=S)c1nccc(OC)c1O [Compound 24]

Completion:
≤ 80%
> 80%
≤ 80%
≤ 80%
